Cited source: PubChem BioAssay (NCI)

System: M14 melanoma
Test: NCI tumour cell line growth inhibition, 48 h
Where a SMILES comes first, the peptide text is derived from it. [ ]: non-standard residue; d: D form. The star is where a group is joined. ξ: configuration not given here. NMeY = CN[C@@H](Cc1ccc(O)cc1)C(=O)O; Cbz = O=C(OCc1ccccc1)*; ξA = CC(N)C(=O)O
Provide the recorded TGI for the entries that follow.

[Q] // lookup TGI | system=M14 melanoma | key= COc1ccc(C2CC(c3c(C)nn(-c4ccccc4)c3-c3ccc(C)cc3O)=NN2c2ccccc2)cc1 (stereo unspecified)
[A] > 100 µM

[Q] // lookup TGI | system=M14 melanoma | key= O=C(c1ccccc1F)c1c(NCc2ccccc2)c(=O)c1=O
[A] > 100 µM

[Q] // lookup TGI | system=M14 melanoma | key= CCOC(=O)c1cc(-c2ccc(OC)c(OC)c2)c[nH]1
[A] > 10 µM

[Q] // lookup TGI | system=M14 melanoma | key= O=C1C=C(Nc2cccc(Br)c2)c2ccccc2C1=O
[A] 13.1 µM

[Q] // lookup TGI | system=M14 melanoma | key= CO[C@H]1C=C[C@]23c4cc5c(cc4CN(CC2O)[C@@H]3C1)OCO5 (stereo partly specified)
[A] > 100 µM

[Q] // lookup TGI | system=M14 melanoma | key= N#Cc1c2c(c(N=[N+]=[N-])n3c1nc1ccccc13)CCCC2
[A] 3.48 µM

[Q] // lookup TGI | system=M14 melanoma | key= CCCC/C(=N\N=C(N)N)c1ccc(F)cc1
[A] 10.4 µM

[Q] // lookup TGI | system=M14 melanoma | key= O=C1CSC2(CC(/C=C/C=C/c3ccccc3)=NN2c2cccc(S(=O)(=O)O)c2)N1c1nc2ccccc2s1 (stereo unspecified)
[A] > 100 µM

[Q] // lookup TGI | system=M14 melanoma | key= Cc1ccc(Nc2nc(=O)[nH]c(=O)[nH]2)cc1N
[A] > 100 µM

[Q] // lookup TGI | system=M14 melanoma | key= COc1ccc(C2=CC(c3cc(OC)c(OC)c(OC)c3)n3ncnc3N2)cc1 (stereo unspecified)
[A] > 100 µM

[Q] // lookup TGI | system=M14 melanoma | key= CCN(CC)CCC(=O)Nc1ccc(Cn2nnc3c2C(=O)c2nnn(Cc4ccc(NC(=O)CCN(CC)CC)cc4)c2C3=O)cc1
[A] 3.43 µM

[Q] // lookup TGI | system=M14 melanoma | key= NC(N)=N/N=C(\c1ccc(Cl)cc1)C1CC1
[A] 30 µM

[Q] // lookup TGI | system=M14 melanoma | key= COc1ccc(N2C(=O)C3c4[nH]c5ccc(C)cc5c4C4CCC(C(C)C)CC4C3C2=O)cc1 (stereo unspecified)
[A] > 100 µM

[Q] // lookup TGI | system=M14 melanoma | key= COc1ccc2nc3ccc(OC)cc3c(SCCCN)c2c1
[A] 31.1 µM

[Q] // lookup TGI | system=M14 melanoma | key= COc1ccc(C[C@@H](C(=O)NCC(N)=O)N(C)C(=O)[C@@H]2CCCN2C(=O)[C@H](CC(C)C)NC(=O)C(C)NC(=O)OCc2ccccc2)cc1 (stereo partly specified) (Cbz-[ξA]LP[NMeY](Me)G-NH2)
[A] > 100 µM

[Q] // lookup TGI | system=M14 melanoma | key= NC(Cc1nn[nH]n1)C(=O)O (stereo unspecified)
[A] > 100 µM

[Q] // lookup TGI | system=M14 melanoma | key= CC1(CC(=O)O)OC2CCCCCC2O1 (stereo unspecified) (tested in a mixture with another compound)
[A] > 100 µM

[Q] // lookup TGI | system=M14 melanoma | key= Cc1ccc(NCSc2ccc(Cl)cc2)cc1
[A] > 100 µM

[Q] // lookup TGI | system=M14 melanoma | key= COc1ccc(Cn2nc(OCc3ccccn3)c3cc([N+](=O)[O-])ccc32)cc1
[A] > 100 µM

[Q] // lookup TGI | system=M14 melanoma | key= CNc1ccc2nc(-c3ccc(OC(=O)N(C)C)cc3)cn2c1
[A] 36.9 µM

[Q] // lookup TGI | system=M14 melanoma | key= CN1C(=O)c2cc(Cl)nc3c(NC(=O)c4cccc(Cl)c4)c(Cl)c(NC(=O)c4cccc(Cl)c4)c1c23
[A] 3.03 µM

----------
Test system: HS 578T breast
Experiment: NCI tumour cell line growth inhibition, 48 h
MEASURED_PROPERTY: TGI

[Q] Reported TGI, molecule COc1cc(C2C3=C(COC3=O)N(CCO)c3cc4c(cc32)CCC4)cc(OC)c1O (stereo unspecified) : ____
[A] 11.4 µM

[Q] Reported TGI, molecule Cc1ccc([P+](Cc2ccc([N+](=O)[O-])cc2)(c2ccc(C)cc2)c2ccc(C)cc2)cc1 : ____
[A] 17.7 µM

[Q] Reported TGI, molecule CCCCCCCCCCCCCCCC[N+]1(CC)CCCC1 : ____
[A] 3.26 µM

[Q] Reported TGI, molecule Cc1ccc(NCSc2ccc(Cl)cc2)cc1 : ____
[A] > 100 µM

[Q] Reported TGI, molecule CN(C)c1ccc(C(=NNC(=O)c2cc3ccccc3[nH]2)c2ccc(N(C)C)cc2)cc1 : ____
[A] 3.74 µM

[Q] Reported TGI, molecule COc1ccc(S(=O)(=O)N/N=C/C(=O)O)cc1 : ____
[A] 1040 µM

[Q] Reported TGI, molecule c1ccc2c(c1)CC1c3[nH]c4ccccc4c3CCN21 (stereo unspecified) : ____
[A] > 10 µM

[Q] Reported TGI, molecule COc1c(O)c(OC)c(C(=O)/C=C/c2ccccc2)c(O)c1OC : ____
[A] > 100 µM

[Q] Reported TGI, molecule O=C(Cn1c2ccc(Br)cc2c2nc3ccccc3nc21)NC1CCCCC1 : ____
[A] > 100 µM

[Q] Reported TGI, molecule CCOC(=O)CCC(NC(=O)OCc1ccccc1)C(=O)NNC(=O)OC(C)(C)C (stereo unspecified) : ____
[A] > 100 µM

[Q] Reported TGI, molecule O=C1C/C(=C\O)C(=O)c2ccccc2N1 : ____
[A] > 100 µM

[Q] Reported TGI, molecule CC1(C)N=C(N)N=C(N)N1c1ccc(OCC(=O)Nc2cccc(S(=O)(=O)F)c2)c(Cl)c1 : ____
[A] > 100 µM

[Q] Reported TGI, molecule CC(=O)N(C(C)=O)n1c(Cc2ccc(Cl)cc2)nn(C(C)=O)c1=O : ____
[A] > 100 µM

[Q] Reported TGI, molecule COc1cc2oc3ccccc3c(=O)c2cc1CSc1ccccc1N : ____
[A] > 100 µM

[Q] Reported TGI, molecule NC(Cc1nn[nH]n1)C(=O)O (stereo unspecified) : ____
[A] > 100 µM

[Q] Reported TGI, molecule COc1cc(C2C(Cl)C(=O)N2c2ccc(Br)cc2)cc(I)c1O (stereo unspecified) : ____
[A] > 100 µM

[Q] Reported TGI, molecule COc1ccc(/C=N/Nc2[nH]c(=S)nc3[nH]ncc23)cc1 : ____
[A] > 100 µM

[Q] Reported TGI, molecule CN(C)c1ccc(/C=C(\NC(=O)c2ccccc2)C(=O)Nc2ccccc2C(=O)NN2C(=O)CSC2c2ccc(N(C)C)cc2)cc1 (stereo unspecified) : ____
[A] > 100 µM

[Q] Reported TGI, molecule CCN(CC)CCOc1ccc(/C=C2\C[C@H]3[C@@H]4CC=C5C[C@@H](OC(C)=O)CC[C@]5(C)[C@H]4CC[C@]3(C)[C@H]2OC(C)=O)cc1OC : ____
[A] 22.4 µM

[Q] Reported TGI, molecule N#Cc1c(=O)c2cccnc2n2c1[nH]c1ccccc12 : ____
[A] 69.9 µM

[Q] Reported TGI, molecule CC1CN=C(c2cccc(OCc3ccc(COc4cccc(C5=NCC(C)N5)c4)cc3)c2)N1 (stereo unspecified) : ____
[A] > 100 µM

----------
System: DU-145 prostate
Assay: NCI tumour cell line growth inhibition, 48 h
Provide the recorded GI50 for the entries that follow.

[Q] // lookup GI50 | system=DU-145 prostate | key= CC(C)(C)n1cc(-c2ccnc(NCCNS(=O)(=O)c3ccc(Br)cc3)c2)c(-c2cccc(O)c2)n1
[A] 2.14 µM

[Q] // lookup GI50 | system=DU-145 prostate | key= CN1C(=O)c2cc(Cl)nc3c(NC(=O)c4cccc(Cl)c4)c(Cl)c(NC(=O)c4cccc(Cl)c4)c1c23
[A] 2.28 µM

[Q] // lookup GI50 | system=DU-145 prostate | key= O=C1OC(c2ccc(O)cc2)(c2ccc(O)cc2)c2cccc3cccc1c23
[A] 17.2 µM

[Q] // lookup GI50 | system=DU-145 prostate | key= O=C(N[C@@H]1CCCc2ccccc21)[C@H](CCC(=O)N1CCN(C2CCCCC2)CC1)N1C(=O)[C@@H](N2C(=O)OC[C@@H]2c2ccccc2)[C@H]1/C=C/c1ccccc1
[A] 2.9 µM

[Q] // lookup GI50 | system=DU-145 prostate | key= COC(=O)C(C)N1C(=O)c2ccccc2I1OC(C)=O (stereo not given)
[A] > 100 µM

[Q] // lookup GI50 | system=DU-145 prostate | key= COc1ccc(C[C@H]2C[C@@H](O)[C@@H](C)C/C=C/Cc3cccc(O)c3C(=O)O2)cn1
[A] 27.7 µM

[Q] // lookup GI50 | system=DU-145 prostate | key= CCCCCCCCCCCCCCCC[N+]1(CC)CCCC1
[A] 0.84 µM

[Q] // lookup GI50 | system=DU-145 prostate | key= COc1ccc2nc3ccc(OC)cc3c(SCCCN)c2c1
[A] 1.81 µM

[Q] // lookup GI50 | system=DU-145 prostate | key= CC1Cc2c(N(C)C)ncnc2N(C)c2ccc(Cl)cc21 (stereo not given)
[A] 5.49 µM

[Q] // lookup GI50 | system=DU-145 prostate | key= C/C(=C(/c1ccc(O)cc1)c1ccc(OCCN2CCCC2)cc1)c1ccccc1
[A] 9.72 µM
